Attribution: patent US10323018B2

- System: PC3 cells
- Procedure Details: PC3 growth inhibition (Cell-titer glo, 72 hours)
- Assay type: cell-based
- Measurement Conditions: Homo sapiens, PC-3, 72 h, read-out: Percent Viability, PC3 cells, compound concentration 1.667 μM, 72 hours

| Smiles Representation | Unit String | viability at 1.667 µM |
| --- | --- | --- |
| CCOc1cc(-c2ccc(F)cc2)nc2cc(C(=O)NCc3cc4cnccc4s3)ccc12 | % | 2 |
| CCOc1cc(-c2ccc(F)cc2)nc2cc(C(=O)NCCc3ccn[nH]3)ccc12 | % | 3 |
| CCOc1cc(SCC)nc2cc(C(=O)NCCCc3ncc[nH]3)ccc12 | % | 5 |
| O=C(NCCCc1ncc[nH]1)c1ccc2c(OCC3CC3)nc(-c3ccc(F)cc3)nc2c1 | % | 3 |
